- assay_target: Tryptase (Homo sapiens, UniProt Q9BZJ3+Q15661+Q9NRR2)
- protocol_summary: Evaluated for its inhibitory potency against tryptase
- Assay type: protein assay
measurement_kind: Ki (µM)

[[record]]
compound_structure_string = "N=C(N)Nc1ccc(CNC(=O)N2CCN(C(=O)O[C@H]3CCC[C@@H](OC(=O)N4CCN(C(=O)NCCCCCN)CC4)CCC3)CC2)cc1"
value_measured = 0.0005

[[record]]
compound_structure_string = "CN(CCC1CCNCC1)C(=O)N1CCN(C(=O)O[C@H]2CCC[C@@H](OC(=O)N3CCN(C(=O)NCc4ccc(NC(=N)N)cc4)CC3)CCC2)CC1"
value_measured = 0.68

[[record]]
compound_structure_string = "N=C(N)Nc1ccc(CNC(=O)N2CCN(C(=O)OCc3ccc(COC(=O)N4CCN(C(=O)NCc5ccc(NC(=N)N)cc5)CC4)cc3)CC2)cc1"
value_measured = 0.0004

[[record]]
compound_structure_string = "N=C(N)Nc1ccc(CNC(=O)N2CCN(C(=O)CCCCCCCCC(=O)N3CCN(C(=O)NCc4ccc(NC(=N)N)cc4)CC3)CC2)cc1"
value_measured = 0.0007

[[record]]
compound_structure_string = "N=C(N)Nc1ccc(CNC(=O)N2CCN(C(=O)OCC34CC5CC(C3)CC(COC(=O)N3CCN(C(=O)NCc6ccc(NC(=N)N)cc6)CC3)(C5)C4)CC2)cc1"
value_measured = 0.01


I = N=C(N)Nc1ccc(CNC(=O)N2CCN(C(=O)O[C@H]3CCC[C@@H](OC(=O)N4CCN(C(=O)CCNc5ccncc5)CC4)CCC3)CC2)cc1
II = N=C(N)Nc1ccc(CNC(=O)N2CCN(C(=O)O[C@H]3CCC[C@@H](OC(=O)N4CCN(C(=O)NCc5ccccc5)CC4)CCC3)CC2)cc1
I need your help: which of the pair I , II has higher Ki? Please identify the chosen entry by its label.
II
(II: 15 µM, I: 0.097 µM)

I = N=C(N)Nc1ccc(CNC(=O)N2CCN(C(=O)O[C@H]3CCC[C@@H](OC(=O)N4CCN(C(=O)NC[C@H]5CC[C@@H](N)CC5)CC4)CCC3)CC2)cc1
II = NCCCCCCNC(=O)N1CCN(C(=O)O[C@H]2CCC[C@@H](OC(=O)N3CCN(C(=O)NCCCCCCN)CC3)CCC2)CC1
Returns the identifier with the smallest measured Ki among I and II . Please identify the chosen entry by its label.
I
